Test system: MS2 coat protein
Assay: apparent KD of MS2 coat protein; designed switch direction (-1 OFF switch, 1 ON switch): 1; higher = weaker reporter binding
Conditions: Eterna round: R98; input ligand: FMN 200 uM
For each entry below, report its apparent KD of MS2 coat protein value.
Write the answer as a number in µM, unit excluded.

Query: Any idea what apparent KD of MS2 coat protein came out for CAUAUAUGGUGAGGAUAUGCAGAGGAUCACCCUGUAGAAGGCAUCAGGGUAGAAGGUGCAAGGAUCACCUGUAAGGAUAUAUCC [pwkr2 ssNG1 DX.28] on MS2 coat protein?
Response: 0.979

Query: Any idea what apparent KD of MS2 coat protein came out for CCGUUGCAAAUAAAACAUGAGGAUCACCCAUGUGAGUCUCAUGAGGAUAUGCAGGUCAAAGACUUGCAGAAGGCAUGGCGACGG [Mat - Same State NG 3 - JL Mod - D67] on MS2 coat protein?
Response: 0.118

Query: Any idea what apparent KD of MS2 coat protein came out for GCAGAAGGUGCGGAGGAUCACCCUGUAAGGAUAUGCAUUAGCAAGGAUAUACAGAGGAUCACCCUGUAGAAGGUGCACUUCAAA [pwkr2 ssNG3 DX.6] on MS2 coat protein?
Response: 0.779

---

Tested on: K4 kissing-loop RNA reporter;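 note: bound reporter read as fluorescence of individual clusters on recovered sequencing chips by microscopy, with normalized cluster intensities fitted with a binding model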
Assay: apparent KD of K4 kissing-loop reporter; higher = weaker reporter binding
Settings: Eterna round: R107; input ligand: arginine 13.2 mM
For each entry below, report its apparent KD of K4 kissing-loop reporter value.
Write the answer as a number in nM, unit excluded.

Query: What value of apparent KD of K4 kissing-loop reporter has been recorded for this entry: AGACUACCACACUGUCAAUAGACAGUGAGCUAGGAUAUGCUGAUAAGCAGAAGGAGUGAUGUUCCAAGGUAGUCAAUAAAAUAAU [FmnAX 13 G29+A66]
Response: 203

Query: What value of apparent KD of K4 kissing-loop reporter has been recorded for this entry: UUUGUAUCGGGAAGGAGCGUGAAUGAUAAUGAAUAUAGUGAUGUUAUAUAUAAGAACGAAUCACAGGUAGGUCGCCCGGAUGACU [SSArgB.O]
Response: 555

Query: What value of apparent KD of K4 kissing-loop reporter has been recorded for this entry: UGUGCCAAAUGUGAUACCAGCUUCCUGCAGUGAUGUUGCAUACGAGUGAUGUUCGUCCGAGGCCCUUGGCAGCGCAGUCGUUUGA [Same State Theophylline B GF 27]
Response: 442

Query: What value of apparent KD of K4 kissing-loop reporter has been recorded for this entry: UCUGGAGUAUAUGAUACCAGCAGUGAGAGACAGGAAGUAUAGUGAUGUUAUAUGAGAGAAUGCCCUUGGCAGCGUGUGCGGUGGG [SSTheophylB.R]
Response: 85

Query: What value of apparent KD of K4 kissing-loop reporter has been recorded for this entry: UGUACCGAGUCAGGAUAUCAACGACUGACAAAAGUCGGUCGAAUAUCCAGUGAUGUUGGAAAUAAAUGAGAAGGGACUUGGUACU [FmnBS 14 #SwitchBubble #StaticStem]
Response: 258

Query: What value of apparent KD of K4 kissing-loop reporter has been recorded for this entry: UUGGCAGUGAUGUUGCCAGAGUUCACCGAAGGAGCGGGUGAAAACCCAGGUAGGUCGCGGUAGCGGAGUGAUUCUCCGCGAGGGC [Same State Arginine A GF 22]
Response: 91

Query: What value of apparent KD of K4 kissing-loop reporter has been recorded for this entry: GGCAUAUGAAAUCGCCUAGAGAGAAAGGAUACCAGCACCCGGCGGUGCCCUUGGCAGCCUAGCCCAGUGAUGUUGGGUCCUCUAA [Rasoonanxe]
Response: 149

Query: What value of apparent KD of K4 kissing-loop reporter has been recorded for this entry: CCCGUGGGUUCGAGAGGGCUUGUGGGAAGUAAGGAUAUUUAGGGAGAAAGAAGGUACUAUAGAAUAUAGUGAUGUUAUAUAUGGG [#07 K4 FMN A Same State]
Response: 435

Query: What value of apparent KD of K4 kissing-loop reporter has been recorded for this entry: AGAAAGAAGGCGGCCGCCACUCUGAUGGGCGAAAGCCCAUUUUUUUAGCAGUGAUGUUGCUUGUUGAGGACCGGGCCAAAGAAAU [2nd]
Response: 174

Query: What value of apparent KD of K4 kissing-loop reporter has been recorded for this entry: `GGUAGCAUGGCGGCCGCCACUCUUCAUUAGUGAUGUUAAUGCCGAGUGGGCAAACUCCGCCAGGAGAGGACCGGGCCAUGCUACC`
Response: 75.1

Query: What value of apparent KD of K4 kissing-loop reporter has been recorded for this entry: UGUGCCAACAGUGAUACCAGCGUGGAGUGAUGUUCCGAGGAUCGGAGUGAUGUUCCGAAGCGCCCUUGGCAGCGCAGAAGCGCGA [Exclusion Theophylline B GF 26]
Response: 156

Query: What value of apparent KD of K4 kissing-loop reporter has been recorded for this entry: GGUGUUGUUUGUGCUGUUUUCUUUGUUUCUCGAGGACCGGUACGGCCGCCACUCGAGUGAUGUUUGGGUAGUGAUGUUUGUUAGU [Bdazzled #1 Exc. TA]
Response: 147

Query: What value of apparent KD of K4 kissing-loop reporter has been recorded for this entry: UUUAAACAUAGUGAUGUUAUGUAACAAUGACGAGGACCGGUACGGCCGCCACUCGAGAGAGAUGAUGGUAAAAUAAAUAAUUUUC [#10 K4 Tryptophan A Same State]
Response: 124

Query: What value of apparent KD of K4 kissing-loop reporter has been recorded for this entry: GUUACGCAUGGAAGGAGCGCUCUCCGGUUUAUUAACACAGUGAUGUUGUGAUUUUACCGAAAGCAGGUAGGUCGCCAUGUGUAAC [Ex Arginine B K4 12]
Response: 320

Query: What value of apparent KD of K4 kissing-loop reporter has been recorded for this entry: CGUAAGGAUUGACGACUGCAGAGCAAAAUAAAGGAUAUCGCAGCGUCGAGAAGGUUAUCGUGCGCCAGUGAUGUUGGCGGUAGUC [theeternabot_sameState_KL_FMN_A_22]
Response: 135

Query: What value of apparent KD of K4 kissing-loop reporter has been recorded for this entry: UUUAACGAGUGAUGUUCGAAAAGUAAUGGUUAGGAUAUCGUUUUUUCGAGAAGGAACCUCGAAGUGAUACGAAAGUAUCGCUUCG [FMN A 2]
Response: 428

Query: What value of apparent KD of K4 kissing-loop reporter has been recorded for this entry: AGUGAUGUAUGGCGGUUUGUCACUUAAAAUCAGGAUAUAUAAACAAAUAGAAGGGAUGGCGGAGUGAUGUUCCGCCGGCCGCCAU [FMN A Exl V1]
Response: 145

Query: What value of apparent KD of K4 kissing-loop reporter has been recorded for this entry: UGUACCGAGUCAGGAUAUCGCGUCGAAAGACGAAACGAGUGAUGUUCGAAUCGAUCGAAAGAUCGUCGAGAAGGGACUUGGUACU [FmnBS 22 #SwitchBubble #StaticStem #DoubleMagnetSystem]
Response: 676

Query: What value of apparent KD of K4 kissing-loop reporter has been recorded for this entry: GCAGUCAAUCGACCACGAAAGUGGAUGGAUACCAGAGUCGAAAGACUCCCUUGGCAGCCAGUGAUGUUGGAAGACUGCAAUAAAA [#SwitchBubble 16 #K4Late]
Response: 357

Query: What value of apparent KD of K4 kissing-loop reporter has been recorded for this entry: UGUAUGUGAUUUGAUACCAGACCAUCUUGUGAAUGAUGAGUGAUGUUUAUUAUGGUUUGGGUCCCUUGGCAGCAAAUCGCAUACU [KL-SSTheoB25]
Response: 717

Query: What value of apparent KD of K4 kissing-loop reporter has been recorded for this entry: UAUAUAGUGAUGUUAUAUAUACAUUCGGAAGGAGCGUGGUAAAACACAGGUAGGUCGCUGAAAUAAUUAAAAUAAUUUUCUUUUU [AstrosSSArgA#1]
Response: 231

Query: What value of apparent KD of K4 kissing-loop reporter has been recorded for this entry: GGAUAGGAUAGAGGAUAUGGUAGUGAUGUUACCAAACUGGUUAAACAUGUCAGAAAACUGGCAUGACCAGAAGGUUGUCCUAUCG [FmnBX 27 U9+U75]
Response: 57.1

Query: What value of apparent KD of K4 kissing-loop reporter has been recorded for this entry: ACUGGAAUUGUACUCCAGUGAUGUUGGAGGCAGGAUAUCCAGUAAAGGAGAAGGGCCAUCGCGCUAUUUGGCCGCAGGCGGCCAG [Acela]
Response: 113

---

For each entry below, report its apparent KD of MS2 coat protein value.
Tested on: MS2 coat protein
Experiment: apparent KD of MS2 coat protein; designed switch direction (-1 OFF switch, 1 ON switch): 1; higher = weaker reporter binding
Conditions: input ligand: none
Write the answer as a number in nM, unit excluded.

Query: What value of apparent KD of MS2 coat protein has been recorded for this entry: UGAAUAGUCACAGGAUAUCAUGCGAAAAUUGCGUGAGAAGGGUGGAUGUUGUGCUCAAAGUGCUACAUGAGGAUCACCCAUGUU [SameState NG1 #42] (Eterna round: R96, puzzle: Same State NG 1)
Response: 187

Query: What value of apparent KD of MS2 coat protein has been recorded for this entry: UUCACCUUUUUUUACAUGAGGAUCACCCAUGUUUUCCCUACGUAGGAUAUCGAUGCUUGAUUGUUCGAGAAGGACGUUGUAAGU [JR_SSND3_Sub056] (Eterna round: R96, puzzle: Same State NG 3)
Response: 33.7

Query: What value of apparent KD of MS2 coat protein has been recorded for this entry: UUAACAUGACGAGGAUAUCAUUUAUAUCUUGAUUGAGAAGGCGUUCUUUUUUUUACCUAACAUGAGGAUCACCCAUGUGACAGU [JR_SSNG1_Sub051] (Eterna round: R96, puzzle: Same State NG 1)
Response: 17.6
